- Tested on: U2OS
- assay summary: Multiplex assay against U2OS
- Format: toxicity, cell-based
- measurement parameters: human, 24 h, 1 µM, compound concentration 1 uM, replicate 1
If the reported Population Hoechst High Intensity Objects (%) equals or exceeds 6%, assign 1 (yes). If not, assign 0 (no).

The following compounds have reported results that may help.
# compound, answer label
records = [
    ("O=C(c1cc2c(cc1F)OC(c1ccc(F)cc1)(c1ccc(Cl)cc1Cl)O2)N1CCOCC1 (stereo unspecified)", "1 (yes)"),
    ("CNC(=O)Nc1ccc(-c2nc(N3CC4CCC(C3)O4)c3cnn(C4CCC5(CC4)OCCO5)c3n2)cc1", "1 (yes)"),
    ("CCc1ccc(OCc2ccccc2C(=O)Nc2ccc3nc(C)cc(N)c3c2)cc1.Cl", "1 (yes)"),
    ("C=CC(=O)Nc1ccc2[nH]c(=O)n(C3CCN(Cc4ccc(-c5nc6cc[nH]c(=O)c6cc5-c5ccccc5)cc4)CC3)c2c1 [Borussertib]", "0 (no)"),
    ("C[C@]12CC[C@@H]3c4ccc(O)cc4CC[C@H]3[C@@H]1CC[C@@H]2O [ESTRADIOL]", "0 (no)"),
]

Q) Determine whether measured Population Hoechst High Intensity Objects (%) meets or exceeds 6% for COc1cc2ncn(-c3cc(OCc4ccccc4C(F)(F)F)c(C(N)=O)s3)c2cc1OC [GW843682X]
A) 0 (no)

Q) Reported Population Hoechst High Intensity Objects (%) at or above 6%? COC(=O)C1=C(C)NC(C)=C(C(=O)OCCCN2CCC(c3ccccc3)(c3ccccc3)CC2)[C@H]1c1cccc([N+](=O)[O-])c1 [NIGULDIPINE]
A) 1 (yes)

Q) Check this compound for Population Hoechst High Intensity Objects (%) at or above 6%: CC1=C(C(=O)Nc2cc3cn[nH]c3cc2F)C(c2ccc(C(F)(F)F)cc2)CC(=O)N1 (stereo unspecified)
A) 0 (no)

Q) Kindly determine if Population Hoechst High Intensity Objects (%) recorded for CNC(=O)Nc1ccc2c(c1)[C@@]1(CC2)OC(=O)N(CC(=O)N(Cc2ccc(F)cc2)[C@@H](C)C(F)(F)F)C1=O [A-486] is above or exactly 6%.
A) 0 (no)

Q) Is Population Hoechst High Intensity Objects (%) at least 6%? Consider CC(C)(C)NC[C@H](O)COc1nsnc1N1CCOCC1 [TIMOLOL]
A) 0 (no)

Q) Hi, just wondering whether COc1ccc(-c2ccc3ncc4c(c3c2)n(-c2ccc(N3CCNCC3)c(C(F)(F)F)c2)c(=O)n4C)cn1.O=C(O)/C=C\C(=O)O [BGT-226] shows Population Hoechst High Intensity Objects (%) of 6% or higher.
A) 1 (yes)

Q) Is Population Hoechst High Intensity Objects (%) for Cc1ccc2c(c1)c1c(n2CCc2ccc(C)nc2)CCN(C)C1 [LATREPIRDINE] at or above 6%?
A) 0 (no)

Q) Reported Population Hoechst High Intensity Objects (%) reaches at least 6% for Cc1cc(C)c(-n2ccn3nc(-c4cccnc4)cc23)cc1NC(=O)c1cc(C#N)cc(S(F)(F)(F)(F)F)c1 [BAY-826] ?
A) 0 (no)

Q) Kindly determine if Population Hoechst High Intensity Objects (%) recorded for C=CC(=O)Nc1cccc(Oc2nc(Nc3ccc(N4CCN(C)CC4)cc3OC)ncc2Cl)c1 is above or exactly 6%.
A) 1 (yes)

Q) Quick check: does O=c1cc(N2CCOCC2)oc2c(-c3cccc4c3sc3ccccc34)cccc12 have Population Hoechst High Intensity Objects (%) greater than or equal to 6%?
A) 1 (yes)
